- Tested Target: FGFR1(h) (Homo sapiens)
- Sequence (P11362 22-822): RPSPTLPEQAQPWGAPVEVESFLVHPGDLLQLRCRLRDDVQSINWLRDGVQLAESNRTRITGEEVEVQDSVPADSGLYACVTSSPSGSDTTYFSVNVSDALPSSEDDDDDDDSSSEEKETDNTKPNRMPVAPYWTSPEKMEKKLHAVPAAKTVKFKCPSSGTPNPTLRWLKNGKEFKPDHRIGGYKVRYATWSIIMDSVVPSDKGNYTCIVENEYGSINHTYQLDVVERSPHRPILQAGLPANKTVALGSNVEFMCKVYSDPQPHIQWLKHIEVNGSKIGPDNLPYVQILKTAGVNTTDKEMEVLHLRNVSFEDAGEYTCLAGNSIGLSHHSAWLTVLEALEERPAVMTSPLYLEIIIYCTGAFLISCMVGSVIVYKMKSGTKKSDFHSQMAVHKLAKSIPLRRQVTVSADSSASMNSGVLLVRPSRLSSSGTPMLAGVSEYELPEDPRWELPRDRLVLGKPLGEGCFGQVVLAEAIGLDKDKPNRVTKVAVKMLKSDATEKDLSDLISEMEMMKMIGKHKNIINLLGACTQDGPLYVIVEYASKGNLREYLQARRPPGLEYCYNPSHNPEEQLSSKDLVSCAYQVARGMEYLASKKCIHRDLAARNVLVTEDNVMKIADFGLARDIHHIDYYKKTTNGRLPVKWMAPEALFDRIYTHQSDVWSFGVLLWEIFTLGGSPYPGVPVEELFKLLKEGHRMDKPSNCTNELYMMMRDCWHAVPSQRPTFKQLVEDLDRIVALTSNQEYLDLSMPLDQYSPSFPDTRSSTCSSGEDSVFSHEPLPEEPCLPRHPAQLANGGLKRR
- Experiment Notes: Kinase assay, FGFR1(h)
- Type: biochemical
- Stated Conditions: 1 μM
Property Name: inhibition at 1 µM (%)

[A] CCN1CCN(c2ccc(Nc3ncnc(Oc4ccc5[nH]c(C)cc5c4F)c3C#N)cc2F)CC1
[B] Cc1cc2c(F)c(Oc3ncnc(Nc4ccc(CN5CCNCC5)cc4)c3C#N)ccc2[nH]1
Query: Which value of inhibition at 1 µM is numerically greater: that of A or that of B ? Respond with the label that goes with your answer.
Result: A
(A: 97%, B: 34%)

* * *

- Test system: Kato III
- Experiment Notes: Inhibition of proliferation (CellTiterblue, 72 hr), Kato III
- Format: cell-based
- Stated Conditions: Homo sapiens, KATO III, 72 h
Property Name: GI50 (nM)
Just the number please, in nM, no unit attached.

Compound: Cc1cc2c(F)c(Oc3ncnc(Nc4ccc(N5C[C@@H](C)N[C@@H](C)C5)cc4)c3C#N)cc(F)c2[nH]1 [Compound 19]
Unit Label: nM
GI50: 79
//
Compound: Cc1cc2c(F)c(Oc3ncnc(Nc4ccc(N5CCN6CCCC6C5)cc4)c3C#N)cc(F)c2[nH]1 (stereo not shown) [Compound 50]
Unit Label: nM
GI50: 174
//
Compound: C=CC(=O)Nc1ccc(Nc2ncnc(Oc3cc(F)c4[nH]c(C)cc4c3F)c2C#N)cc1 [Compound 56]
Unit Label: nM
GI50: 106

Query compound follows.
Query: Give the reported GI50 for this compound. C=CC(=O)Nc1cccc(Nc2ncnc(Oc3cc(F)c4[nH]c(C)cc4c3F)c2C#N)c1 [Compound 53]
Result: 152

* * *

- Tested Target: FGFR1(h) (Homo sapiens)
- Experiment Notes: Kinase assay, FGFR1(h)
- Format: biochemical
- Stated Conditions: 1 μM
Property Name: inhibition at 1 µM (%)

Molecule: Cc1cc2c(F)c(Oc3ncnc(Nc4ccc(N5CCN(CC(F)(F)F)CC5)cc4)c3C#N)ccc2[nH]1
Tested Target: FGFR1(h) (Homo sapiens)
Value Observed: 76

Molecule: Cc1cc2c(F)c(Oc3ncnc(Nc4ccc(N5CCCS5(=O)=O)cc4)c3C#N)ccc2[nH]1
Tested Target: FGFR1(h) (Homo sapiens)
Value Observed: 99

Molecule: Cc1cc2c(F)c(Oc3ncnc(Nc4ccc(N5CCCC5=O)cc4)c3C#N)cc(F)c2[nH]1
Tested Target: FGFR1(h) (Homo sapiens)
Value Observed: 101

Molecule: Cc1cc2c(F)c(Oc3ncnc(Nc4ccc(N5CCN6CCCC6C5)cc4)c3C#N)cc(F)c2[nH]1 (stereo not drawn)
Tested Target: FGFR1(h) (Homo sapiens)
Value Observed: 101

Molecule: C=CC(=O)Nc1cccc(Nc2ncnc(Oc3cc(F)c4[nH]c(C)cc4c3F)c2C#N)c1
Tested Target: FGFR1(h) (Homo sapiens)
Value Observed: 100

Molecule: Cc1cc2c(F)c(Oc3ncnc(Nc4ccc(N5CCNCC5)cc4)c3C#N)cc(F)c2[nH]1
Tested Target: FGFR1(h) (Homo sapiens)
Value Observed: 99

Molecule: Cc1cc2c(F)c(Oc3ncnc(Nc4ccc(C(=O)N(C)C)cc4)c3C#N)cc(F)c2[nH]1
Tested Target: FGFR1(h) (Homo sapiens)
Value Observed: 90

Molecule: Cc1cc2c(F)c(Oc3ncnc(Nc4ccc(C(=O)N5CCN(C)CC5)cc4)c3C#N)ccc2[nH]1
Tested Target: FGFR1(h) (Homo sapiens)
Value Observed: 85

Molecule: Cc1cc2c(F)c(Oc3ncnc(Nc4ccc5[nH]ccc5c4)c3C#N)cc(F)c2[nH]1
Tested Target: FGFR1(h) (Homo sapiens)
Value Observed: 101

Molecule: Cc1cc2c(F)c(Oc3ncnc(Nc4ccc(N5CCNC(=O)C5)cc4)c3C#N)ccc2[nH]1
Tested Target: FGFR1(h) (Homo sapiens)
Value Observed: 99

Molecule: Cc1cc2c(F)c(Oc3ncnc(Nc4ccc(F)cc4)c3C#N)cc(F)c2[nH]1
Tested Target: FGFR1(h) (Homo sapiens)
Value Observed: 91

Molecule: CCC(=O)Nc1cccc(Nc2ncnc(Oc3cc(F)c4[nH]c(C)cc4c3F)c2C#N)c1
Tested Target: FGFR1(h) (Homo sapiens)
Value Observed: 101

Origin of values: patent US20180215734A1
